tested on: HCT-116; test: NCI tumour cell line growth inhibition, 48 h
The source made the active and inactive calls. Cut-off read from the data, not from the text of the source: active = GI50 up to about 1.1 µM and inactive = higher.

>  <compound>
CC(=O)/N=C1\NC(=O)/C(=C/c2ccc(/C=C3/C(=O)N/C(=N\C(C)=O)N3C)cc2)N1C

>  <GI50>
> 100 µM (inactive)

$$$$
>  <compound>
CCOC(=O)C1=C(Nc2ccc(Br)cc2)OCC1=O

>  <GI50>
> 100 µM (inactive)

$$$$
>  <compound>
COC(=O)[C@@]12CSC[C@]1(C(=O)OC)N[C@@H](c1ccccc1O)C2

>  <GI50>
> 100 µM (inactive)

$$$$
>  <compound>
CCCCCCc1cc(C=O)sc1-c1ccc(-c2sc(-c3ccc(-c4ccc(-c5cc(CCCCCC)c(-c6ccc(-c7sc(C=O)cc7CCCCCC)s6)s5)s4)s3)cc2CCCCCC)s1

>  <GI50>
> 100 µM (inactive)

$$$$
>  <compound>
CC(=O)OC[C@@H]1[C@H]2CC[C@]3(C)[C@@H](OC(C)=O)CC[C@H]3[C@@H]2CC[C@H]1C1(C)SCCS1

>  <GI50>
> 25 µM (inactive)

$$$$
>  <compound>
CC1OC(n2cnc3c(N)nc(Cl)nc32)C(C)(O)C1O (stereo not given)

>  <GI50>
> 25 µM (inactive)

$$$$
>  <compound>
COc1ccccc1C1SCC(=O)N1c1ccc(-c2ccc(-n3c(-c4ccccc4)nc4ccccc4c3=O)cc2)cc1 (stereo not given)

>  <GI50>
> 100 µM (inactive)

$$$$
>  <compound>
CCSC1=C(C#N)C2(CCCCC2)C2=C(O)CC(C)(C)CC2=N1

>  <GI50>
> 100 µM (inactive)

$$$$
>  <compound>
CC(C)(CCCCC(C)(C)NCC1COc2ccccc2O1)NCC1COc2ccccc2O1 (stereo not given)

>  <GI50>
7.91 µM (inactive)

$$$$
>  <compound>
COc1cc(O)c2c(c1)C(=O)c1cc(C)cc(O)c1C2=O [PHYSCION]

>  <GI50>
> 100 µM (inactive)

$$$$
>  <compound>
CC(=O)OC/C=C(/C=C/CNC1CCCCC1)OC(C)=O

>  <GI50>
14.9 µM (inactive)

$$$$
>  <compound>
COc1ccc(N[S+]([O-])c2ccc(OC)cc2)cc1 (stereo not given)

>  <GI50>
41.2 µM (inactive)

$$$$
>  <compound>
Cc1ccc(S(=O)(=O)c2c(O)c3ccc(O)c(C)c3oc2=O)cc1

>  <GI50>
> 100 µM (inactive)

$$$$
>  <compound>
CC(=O)Nc1cc2cc(NS(=O)(=O)c3cc(C(F)(F)F)cc(C(F)(F)F)c3)ccc2oc1=O

>  <GI50>
> 100 µM (inactive)

$$$$
>  <compound>
N#CC(C#N)=C(N)/C(C#N)=C/c1ccc2ccccc2n1

>  <GI50>
15.1 µM (inactive)

$$$$
>  <compound>
CCCCCCCCCCCCCCCCP(=O)(O)OP(=O)(O)OCC1OC(n2cnc3c(N)ncnc32)C(O)C1O (stereo not given)

>  <GI50>
21.5 µM (inactive)

$$$$
>  <compound>
O=c1nc(/C=C/c2ccccc2Cl)cc2n1CCN2CCO

>  <GI50>
> 100 µM (inactive)

$$$$
>  <compound>
CC(C)(C)C1CCC2c3c([nH]c4ccccc34)C3C(=O)N(c4cccc([N+](=O)[O-])c4)C(=O)C3C2C1 (stereo not given)

>  <GI50>
11.6 µM (inactive)

$$$$
>  <compound>
CCn1cnc2c(NC(C)=O)ncnc21

>  <GI50>
> 100 µM (inactive)

$$$$
>  <compound>
CCN1c2cc(Br)cc3[nH]c(=O)n(c23)CCC1C (stereo not given)

>  <GI50>
14.8 µM (inactive)

$$$$

###

tested on: Hs-578T; assay: NCI tumour cell line growth inhibition, 48 h
Activity calls are given as the source filed them. Rule as the data show it: active = GI50 up to about 1.1 µM and inactive = higher.
Labels: yes = active, no = inactive

>  <compound>
COC(=O)C1=C(C(=O)OC)C2(C)C=CC1O2 (configuration not stated)

>  <assigned.class>
no

$$$$
>  <compound>
CC[C@H](CCCC[C@H]1CC[C@@H]2CC(=O)C[C@H]12)OC

>  <assigned.class>
no

$$$$
>  <compound>
CC1=CC(C)C(O)C(C)/C=C\C(O)C/C=C(/C)C(=O)CC(O)C(C)\C=C/C=C\C=C/C(=O)NC2=C(O)C(=O)c3c(cc(C)c(O)c3C1=O)C2=O (configuration not stated)

>  <assigned.class>
no

$$$$
>  <compound>
COC(=O)[C@@]12CSC[C@]1(C(=O)OC)N[C@@H](c1ccccc1O)C2

>  <assigned.class>
no

$$$$
>  <compound>
O=C1c2ccccc2-c2nc(-c3cccnc3)cc3c2c1nc1ccccc13

>  <assigned.class>
no

$$$$
>  <compound>
CC(=O)OC1(C)CC(C)C(=O)C(C(O)CC2CC(=O)NC(=O)C2)C1 (configuration not stated)

>  <assigned.class>
yes

$$$$
>  <compound>
CNc1ccc2c(c1)Cc1ccccc1-2

>  <assigned.class>
no

$$$$
>  <compound>
CC(=O)C1=C(C)N2C(=NC3=C(CCc4ccccc43)C2c2ccc(Cl)cc2)S1 (configuration not stated)

>  <assigned.class>
no

$$$$
>  <compound>
Cc1cc(-c2nc3ccc(F)cc3s2)ccc1NC(=O)C(N)CCCCN (configuration not stated)

>  <assigned.class>
no

$$$$
>  <compound>
Brc1ccc(/N=N/N2CCCC2)cc1

>  <assigned.class>
no

$$$$
>  <compound>
CC(C)c1ccccc1[S+]([O-])c1ccccc1C(C)(C)O (configuration not stated)

>  <assigned.class>
no

$$$$
>  <compound>
CN(C)CCN1Nc2c3ccccc3nc3c(C(=O)NCCCN(C)CCCNC(=O)c4ccc5c6c(c7ccccc7nc46)NN5CCN(C)C)ccc1c23

>  <assigned.class>
yes

$$$$
>  <compound>
Cc1cc(Nc2ccc(NS(C)(=O)=O)cc2)c2c(ccc3[nH]ccc32)n1

>  <assigned.class>
no

$$$$
>  <compound>
CCOC(=O)C1=NN(c2ccc([N+](=O)[O-])cc2)[C@@]2(C)C[C@]3(c4ccccc4)N(c4ccc([N+](=O)[O-])cc4)N=C(C(=O)OCC)N3c3ccccc3N12

>  <assigned.class>
no

$$$$
>  <compound>
CCCCc1ccc(C#CC#Cc2ccc(CCCC)s2)s1

>  <assigned.class>
no

$$$$
>  <compound>
O=C(c1cc2c(c3ccccc13)NCCN=C2C(F)(F)F)C(F)(F)F

>  <assigned.class>
no

$$$$
>  <compound>
CCN1c2cc(Br)cc3[nH]c(=O)n(c23)CCC1C (configuration not stated)

>  <assigned.class>
no

$$$$
>  <compound>
CC(C)(C)OC(=O)C1C(=O)NC(=O)CC1CC(OCc1ccccc1)C(COCc1ccccc1)OCc1ccccc1 (configuration not stated)

>  <assigned.class>
no

$$$$
>  <compound>
COC1(CCO)CC=CCC1(CCO)OC (configuration not stated)

>  <assigned.class>
no

$$$$
>  <compound>
CNC1C(O)C(NC)C2OC3(O)C(=O)CC(C)OC3OC2C1O (configuration not stated)

>  <assigned.class>
no

$$$$
>  <compound>
CCCCCCC(=O)c1ccc2ccccc2c1O

>  <assigned.class>
no

$$$$
>  <compound>
O=[N+]([O-])c1cc2oc(COc3ccccc3)nc2cc1Cl

>  <assigned.class>
no

$$$$

###

tested on: DU-145; test: NCI tumour cell line growth inhibition, 48 h
Activity calls are given as the source filed them. Cut-off read from the data, not from the text of the source: active = GI50 up to about 1.1 µM and inactive = higher.
value.type: GI50

>  <molecule>
CC12C=CC(C)(C3C(=O)C4C(C(=O)C31)C1(C)C=CC4(C)[S+]1[O-])[S+]2[O-] (stereo not drawn)

>  <value.type>
GI50

>  <result>
> 100 µM (inactive)

$$$$
>  <molecule>
Cc1ccc(NC(=O)C(=O)C2C(=O)C3=C(CC2(C)C)NC2C=CC=CC2S3)c(C)c1 (stereo not drawn)

>  <value.type>
GI50

>  <result>
> 100 µM (inactive)

$$$$
>  <molecule>
O=C1NC2(CCN(CCCC3(c4ccc(F)cc4)OCCO3)CC2)Oc2ccccc21

>  <value.type>
GI50

>  <result>
> 100 µM (inactive)

$$$$
>  <molecule>
CC[C@]12C=CCN3CC[C@@]4(c5cc(Br)c(OC)cc5N(C)[C@H]4[C@@](O)(C(=O)NC(Cc4c[nH]c5ccccc45)C(=O)OC)[C@@H]1O)[C@@H]32 (stereo partly drawn)

>  <value.type>
GI50

>  <result>
35.2 µM (inactive)

$$$$
>  <molecule>
CCCCCCCCCCCCCCCCCCNc1nc(=O)n(C2CC(OP(=O)(O)OCC3OC(n4cc(F)c(=O)[nH]c4=O)CC3O)C(CO)O2)cc1F (stereo not drawn)

>  <value.type>
GI50

>  <result>
62.2 µM (inactive)

$$$$
>  <molecule>
O=C(/C=C/c1ccc(O)c(O)c1)OCCc1cccc2ccccc12

>  <value.type>
GI50

>  <result>
5.48 µM (inactive)

$$$$
>  <molecule>
CN(CCO)CCCC1COc2ccccc2O1 (stereo not drawn)

>  <value.type>
GI50

>  <result>
> 100 µM (inactive)

$$$$
>  <molecule>
COC1CC(C)(NC(C)=O)C2OC(c3ccccc3)OCC2O1 (stereo not drawn)

>  <value.type>
GI50

>  <result>
> 100 µM (inactive)

$$$$
>  <molecule>
Cc1ccccc1N/N=C1\C(=O)Nc2ccccc21

>  <value.type>
GI50

>  <result>
> 100 µM (inactive)

$$$$
>  <molecule>
CCOC(=O)CNC(=O)C(CSC(=O)N(O)c1ccc(Cl)cc1)NC(=O)CCC(N)C(=O)OCC (stereo not drawn)

>  <value.type>
GI50

>  <result>
> 50 µM (inactive)

$$$$
>  <molecule>
CC1(C)CCCCCCCCCC(C)(CCCCCCCCCCCCO)C1=O (stereo not drawn)

>  <value.type>
GI50

>  <result>
17.7 µM (inactive)

$$$$
>  <molecule>
O[C@@]12Cc3c([nH]c4ccccc34)[C@@H]3Oc4cccc5c4[C@@]31CCN(CC1CC1)[C@@H]2C5

>  <value.type>
GI50

>  <result>
27 µM (inactive)

$$$$
>  <molecule>
CCOC(=O)C(CCSC)(CCSC)C(=O)OCC

>  <value.type>
GI50

>  <result>
> 100 µM (inactive)

$$$$
